system: Akt/PKB phosphorylation in Raw 264-7 macrophages; assay: Cell based ELISA to monitor PI3K inhibition (Akt/PKB phosphorylation after Complement 5a stimulation); settings: Mus musculus, RAW264.7; Raw 264-7 macrophages, 50 nM Complement 5a; read-out: Cell Assay (P-Akt, Elisa) IC50
pIC50: −log10 of the molar value.

Entry smiles	pIC50
CC(=O)Nc1nc(C)c(-c2csc(Nc3cccnc3)n2)s1	5.79
CC(=O)Nc1nc(C)c(-c2csc(NCCC(N)=O)n2)s1	5.74
CC(=O)Nc1nc(C)c(-c2csc(Nc3ccc(Cl)nc3)n2)s1	6.18
CC(=O)Nc1nc(C)c(-c2csc(Nc3cccc(C(=O)O)c3)n2)s1	5.50

====

molecular target: PI3Kγ (Homo sapiens (Human)); test: High Throughput PI3K Lipid Kinase Assay (scintillation proximity assay); conditions: Human recombinant GST-PI3Kγ, SPA
Sequence (P48736 whole entry): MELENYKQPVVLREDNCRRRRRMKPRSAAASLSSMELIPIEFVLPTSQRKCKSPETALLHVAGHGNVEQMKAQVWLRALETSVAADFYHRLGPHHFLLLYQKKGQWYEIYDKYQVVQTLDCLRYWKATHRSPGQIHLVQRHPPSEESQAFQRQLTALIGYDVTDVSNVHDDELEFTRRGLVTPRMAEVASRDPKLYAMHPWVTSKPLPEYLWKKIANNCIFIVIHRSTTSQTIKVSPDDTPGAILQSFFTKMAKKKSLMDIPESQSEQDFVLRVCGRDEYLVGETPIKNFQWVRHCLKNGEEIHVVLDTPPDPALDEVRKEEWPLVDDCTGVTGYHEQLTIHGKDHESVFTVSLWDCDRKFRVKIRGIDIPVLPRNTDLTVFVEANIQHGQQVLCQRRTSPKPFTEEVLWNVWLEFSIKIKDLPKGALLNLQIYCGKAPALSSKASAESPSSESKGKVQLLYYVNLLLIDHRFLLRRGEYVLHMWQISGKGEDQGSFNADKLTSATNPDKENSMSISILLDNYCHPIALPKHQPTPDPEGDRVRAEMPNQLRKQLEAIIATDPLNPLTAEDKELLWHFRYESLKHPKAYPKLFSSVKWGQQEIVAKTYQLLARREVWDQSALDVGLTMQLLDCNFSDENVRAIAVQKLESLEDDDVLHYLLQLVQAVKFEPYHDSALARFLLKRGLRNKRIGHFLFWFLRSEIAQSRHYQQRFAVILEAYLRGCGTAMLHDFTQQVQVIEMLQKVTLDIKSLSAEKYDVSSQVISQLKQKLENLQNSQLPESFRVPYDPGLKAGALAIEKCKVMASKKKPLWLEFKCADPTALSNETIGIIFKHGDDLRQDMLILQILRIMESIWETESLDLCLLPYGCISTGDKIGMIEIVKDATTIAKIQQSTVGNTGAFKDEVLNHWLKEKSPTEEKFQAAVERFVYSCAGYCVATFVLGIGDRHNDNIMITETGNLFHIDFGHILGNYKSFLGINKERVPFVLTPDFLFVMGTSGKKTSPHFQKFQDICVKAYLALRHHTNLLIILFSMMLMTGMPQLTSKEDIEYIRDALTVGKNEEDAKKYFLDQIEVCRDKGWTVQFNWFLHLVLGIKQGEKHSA
Output Satisfied for records whose IC50 is lower than 400 nM, Not satisfied for records at or above 400 nM.

Molecule	System tested	Category
CC(=O)Nc1nc(C)c(-c2csc(Nc3cccnc3F)n2)s1	PI3Kγ (Homo sapiens (Human))	Satisfied
C=CCNc1nc(-c2sc(NC(C)=O)nc2C)cs1	PI3Kγ (Homo sapiens (Human))	Satisfied
CC(=O)Nc1nc(C)c(-c2csc(NC(C)(C)C)n2)s1	PI3Kγ (Homo sapiens (Human))	Satisfied
CC(=O)Nc1nc(C)c(-c2csc(N3CCCCC3)n2)s1	PI3Kγ (Homo sapiens (Human))	Not satisfied
COCCNc1nc(-c2sc(NC(C)=O)nc2C)cs1	PI3Kγ (Homo sapiens (Human))	Satisfied
CC(=O)Nc1nc(C)c(-c2csc(NCCc3nnc(O)o3)n2)s1	PI3Kγ (Homo sapiens (Human))	Satisfied
CCOC(CCNc1nc(-c2sc(NC(C)=O)nc2C)cs1)OCC	PI3Kγ (Homo sapiens (Human))	Not satisfied
CC(=O)Nc1nc(C)c(-c2csc(N3CCOCC3)n2)s1	PI3Kγ (Homo sapiens (Human))	Not satisfied
CC(=O)Nc1nc(C)c(-c2csc(NCCN3CCOCC3)n2)s1	PI3Kγ (Homo sapiens (Human))	Not satisfied
CC(=O)Nc1nc(C)c(-c2csc(Nc3cccnc3)n2)s1	PI3Kγ (Homo sapiens (Human))	Satisfied
CC(=O)Nc1nc(C)c(-c2csc(N)n2)s1	PI3Kγ (Homo sapiens (Human))	Not satisfied
CC(=O)Nc1nc(C)c(-c2csc(Nc3cccc(CCC(=O)O)c3)n2)s1	PI3Kγ (Homo sapiens (Human))	Satisfied
CC(=O)Nc1nc(C)c(-c2csc(NCC(O)c3ccccc3)n2)s1 (centres unmarked)	PI3Kγ (Homo sapiens (Human))	Satisfied
CC(=O)NCCNc1nc(-c2sc(NC(C)=O)nc2C)cs1	PI3Kγ (Homo sapiens (Human))	Satisfied
